biological target: potassium ion channel hERG (Homo sapiens, UniProt Q12809); test: Assay 5 hERG assay (patch clamp, CHO cells over-expressing hERG); conditions: SyncroPatch 384PE, room temperature, geometric mean, read-out: Assay 5 (hERG Hu CHO if EPh CR-Syncro) GMean IC50
Sequence (Q12809 whole entry): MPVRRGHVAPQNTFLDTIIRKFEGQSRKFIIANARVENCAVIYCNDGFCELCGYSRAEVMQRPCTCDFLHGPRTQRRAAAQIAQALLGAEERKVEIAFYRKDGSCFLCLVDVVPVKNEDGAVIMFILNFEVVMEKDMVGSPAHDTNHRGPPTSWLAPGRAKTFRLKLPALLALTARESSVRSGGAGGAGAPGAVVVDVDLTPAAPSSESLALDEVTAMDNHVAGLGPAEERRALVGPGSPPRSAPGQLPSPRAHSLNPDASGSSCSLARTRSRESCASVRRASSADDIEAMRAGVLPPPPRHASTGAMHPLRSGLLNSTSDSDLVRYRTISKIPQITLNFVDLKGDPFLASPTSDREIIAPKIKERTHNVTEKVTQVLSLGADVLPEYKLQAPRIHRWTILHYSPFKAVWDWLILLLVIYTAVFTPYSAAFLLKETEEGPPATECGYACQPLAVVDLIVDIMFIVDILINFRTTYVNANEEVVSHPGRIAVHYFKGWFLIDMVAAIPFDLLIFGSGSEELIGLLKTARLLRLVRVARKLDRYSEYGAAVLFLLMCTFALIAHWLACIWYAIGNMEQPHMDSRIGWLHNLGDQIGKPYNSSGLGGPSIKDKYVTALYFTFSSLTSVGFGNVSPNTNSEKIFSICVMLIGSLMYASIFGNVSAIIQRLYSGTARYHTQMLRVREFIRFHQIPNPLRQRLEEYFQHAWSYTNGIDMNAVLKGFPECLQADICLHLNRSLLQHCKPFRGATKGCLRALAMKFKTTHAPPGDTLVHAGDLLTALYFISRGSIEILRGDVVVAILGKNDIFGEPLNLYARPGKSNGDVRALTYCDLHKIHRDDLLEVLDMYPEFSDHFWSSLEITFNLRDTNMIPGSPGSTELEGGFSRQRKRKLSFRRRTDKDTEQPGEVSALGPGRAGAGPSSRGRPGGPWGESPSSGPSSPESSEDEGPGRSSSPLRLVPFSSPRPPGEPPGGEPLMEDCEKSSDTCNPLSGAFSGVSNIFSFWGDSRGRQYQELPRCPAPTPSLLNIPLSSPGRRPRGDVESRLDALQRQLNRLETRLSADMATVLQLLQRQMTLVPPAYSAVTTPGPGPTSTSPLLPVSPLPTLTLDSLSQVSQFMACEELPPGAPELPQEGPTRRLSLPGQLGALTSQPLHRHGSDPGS
Examples of molecules with documented IC50 follow.
reported-metric: IC50

O=c1cccnn1-c1ccc(N[C@H]2CC[C@H](Nc3ncc(C4CC4)nn3)C2)nc1 [Example 118] | > 40 µM
Cc1ccc(=O)n(-c2ccc(NCC(CCO)CNc3ncc(C)nn3)nc2)c1 (racemic) [Example 316] | > 40 µM
Cc1cnc(NCC(CCO)CNc2ccc(-n3c(=O)n(C)c4cccnc43)cn2)nn1 (racemic) [Example 319] | > 40 µM
Cc1cnc(N[C@H]2CC[C@H](Nc3ccc(-n4nccc(OC(F)F)c4=O)cn3)C2)nn1 [Example 281] | > 40.1 µM
